Recorded values, source PubChem BioAssay (NCI).

protocol: NCI Yeast Anticancer Drug Screen. Data for the sgs1 strain (AID 173);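 further: 0% = growth of vehicle-only control cultures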
assay_setup: S. cerevisiae sgs1 mutant, at 1.2 µM, hits give high values
Compounds without any hit were thinned out: in the full panel of roughly 79,000, 15% have a hit.

{"compound": "Cc1ccc(CNc2ccc(Br)cc2)cc1", "unit_info": "%", "growth inhibition": -17}
{"compound": "S=C1SCN(CCc2ccccc2)CN1CCc1ccccc1", "unit_info": "%", "growth inhibition": -5}
{"compound": "O=S1(=O)c2ccccc2N=C(c2ccccc2Cl)CC1c1ccc(F)cc1 (stereo unspecified)", "unit_info": "%", "growth inhibition": -7}
{"compound": "Cc1cc(N=C2C=CC(=[N+](C)C)C=C2)c(N)cc1N", "unit_info": "%", "growth inhibition": -27}
{"compound": "S=P(N1CC1)(N1CC1)N1CC1", "unit_info": "%", "growth inhibition": -2}
{"compound": "C=C(C)[C@@H]1CCc2c(O)c(O)c(=O)cc(C)c2C1", "unit_info": "%", "growth inhibition": 1}

###

protocol: NCI Yeast Anticancer Drug Screen. Data for the mec2-1 strain (AID 157)
assay_setup: S. cerevisiae mec2-1 strain, at 50.0 µM (retest, dose inferred, filed as 5.0)
About 79,000 compounds went through this panel and 15% of them were active in at least one assay; those are over-represented in the sample as a whole. Calls of active or inactive are those of the source. No stated cut-off is given here; in the data, active means growth inhibition above about 70%; inactive means the rest.
Outcome codes: active, inactive

{"molecule": "CCC(=O)Oc1ccc(/C=N/NC(N)=S)nc1", "classification": "active"}
{"molecule": "O=[N+]([O-])/C(C(Cl)=C(Cl)Cl)=C1/OCCS1", "classification": "active"}
{"molecule": "Cc1cc(N=C2C=CC(=[N+](C)C)C=C2)c(N)cc1N", "classification": "active"}
{"molecule": "Cc1ccc(S(=O)(=O)Nc2ccc3c(c2)C(O)c2ccccc2-3)cc1 (stereo not given)", "classification": "inactive"}
{"molecule": "S=c1[nH]nc(-c2ccc(Cl)cc2)s1", "classification": "active"}
{"molecule": "COc1ccc(SCc2cc(OC)ccc2OC)cc1", "classification": "inactive"}
{"molecule": "Nc1ccc(S(=O)(=O)Nc2ccc(Nc3c4ccccc4nc4ccccc34)cc2)cc1", "classification": "inactive"}
{"molecule": "OCCNCCOc1ccc(/C(=C(/Cl)c2ccccc2)c2ccccc2)cc1", "classification": "active"}
{"molecule": "CN(C)CC1CCCc2ccccc2C1=O (stereo not given)", "classification": "inactive"}
{"molecule": "CC(=O)C1=C(C)O/C(=C/c2cccc(Cl)c2)C1=O", "classification": "inactive"}
{"molecule": "COCCCN(Cc1cc(OC)c(OC)c(OC)c1)C(=S)Nc1cccc(Cl)c1", "classification": "inactive"}
{"molecule": "O=C1C=CC(=O)N1c1ccc2c(c1)OCO2", "classification": "active"}
{"molecule": "O=C(NCCCCCN1CCC2(CCCCC2)CC1)C(C1CCCCC1)C1CCCCC1", "classification": "active"}
{"molecule": "C=C1N(C)c2ccc(Cl)cc2C1(C)C", "classification": "active"}
{"molecule": "Nc1cc(S(N)(=O)=O)ccc1SSc1ccc(S(N)(=O)=O)cc1N", "classification": "inactive"}
{"molecule": "S=c1nc(Cl)cc2[nH]c(Cl)cn12", "classification": "inactive"}
{"molecule": "CC1C(C#N)(C#N)C(C#N)=C(N)C1(Cl)[N+](=O)[O-] (stereo not given)", "classification": "active"}
{"molecule": "O=Nc1ccc(Nc2ccccc2)cc1", "classification": "active"}
{"molecule": "OC(CN1CCCCC1)c1cc(Cl)c(Cl)c(Cl)c1 (stereo not given)", "classification": "inactive"}
{"molecule": "Cc1cccc(/C=N/NC(=S)N(C)CCc2ccccn2)n1", "classification": "active"}
{"molecule": "O=C1C=CC(=Nc2ccccc2)c2ccccc21", "classification": "inactive"}
{"molecule": "O=C1C(Cl)=C(Cl)C(Cl)(Cl)C(Cl)C1(Cl)Cl (stereo not given)", "classification": "active"}
{"molecule": "CN(NC(=O)/C(=C/c1ccc(O)cc1)NC(=O)c1ccccc1)c1ccnc2cc(Cl)ccc12", "classification": "inactive"}
{"molecule": "COc1ccc(/C=C2\\SC(=S)N(C=C3C(=O)NC(=S)NC3=O)C2=O)cc1OC", "classification": "active"}
{"molecule": "CNc1nc(C)nc2c1cnn2-c1ccc([N+](=O)[O-])cc1", "classification": "inactive"}

###

protocol: NCI Yeast Anticancer Drug Screen. Data for the bub3 strain (AID 167)
assay_setup: S. cerevisiae bub3 mutant strain, at 3.7 µM, hits give high values
The panel holds about 79,000 compounds, 15% with a hit somewhere; the sample as a whole holds those more often.
Documented growth inhibition across a set of molecules
readout_kind: growth inhibition (%)

{"molecule": "O=Cc1coc2ccccc2c1=O", "readout_kind": "growth inhibition", "reading": 13}
{"molecule": "O=Nn1c2ccccc2c2cc([N+](=O)[O-])ccc21", "readout_kind": "growth inhibition", "reading": 19}
{"molecule": "c1ccc2c(c1)ccc1c3ccncc3ccc21", "readout_kind": "growth inhibition", "reading": 35}
{"molecule": "N#CC(=S)Nc1cccc(Cl)c1", "readout_kind": "growth inhibition", "reading": 7}
{"molecule": "COc1ccc(N2CN(C)CSC2=S)cc1", "readout_kind": "growth inhibition", "reading": -11}
{"molecule": "Nc1ccc2c(=S)c3ccccc3[nH]c2c1", "readout_kind": "growth inhibition", "reading": -16}
{"molecule": "O=C(CNS(=O)(=O)Cc1ccccc1)NNc1ccccc1", "readout_kind": "growth inhibition", "reading": 0}
{"molecule": "NNC(=S)Nc1cccc2ccccc12", "readout_kind": "growth inhibition", "reading": -9}
{"molecule": "CC(=O)OCC1OC(O[C@H]2C=C[C@@H](C(=O)OCc3ccccc3)n3c(=O)n(-c4ccccc4)c(=O)n32)C(OC(C)=O)C(OC(C)=O)C1OC(C)=O (some centres not stated)", "readout_kind": "growth inhibition", "reading": -18}
{"molecule": "COC(=O)c1oc([N+](=O)[O-])c(Cl)c1Cl", "readout_kind": "growth inhibition", "reading": 41}
{"molecule": "CC[C@@]1(OC(=O)CN(C)C)C(=O)OCc2c1cc1n(c2=O)Cc2cc3c(N)cccc3nc2-1", "readout_kind": "growth inhibition", "reading": -20}
{"molecule": "Cc1cc(C)c(N2C(=O)CC(Sc3ccccc3N)C2=O)c(C)c1 (configuration not stated)", "readout_kind": "growth inhibition", "reading": -43}

###

protocol: NCI Yeast Anticancer Drug Screen. Data for the rad52 strain (AID 147);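 further: 0% = growth of vehicle-treated control cultures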
assay_setup: S. cerevisiae rad52 mutant growth inhibition; at 100.0 µM; hits give high values
About 79,000 compounds went through this panel and 15% of them were active in at least one assay; those are over-represented in the sample as a whole.
Threshold check on growth inhibition: at or above 90% gives YES, strictly below gives NO.

{"molecule": "CCCCCCCCN1C(=O)c2ccccc2C1=O", "classification": "NO"}
{"molecule": "CC(=O)C1=C(C)O/C(=C/c2cccc(Cl)c2)C1=O", "classification": "YES"}
{"molecule": "CC(C)(C)[OH+][O-].[O-]c1ccc(Cl)cc1C=Nc1ccc(Cl)cc1[O-].[O]=[V]", "classification": "NO"}
{"molecule": "CN(NC(=O)/C(=C/c1ccc(O)cc1)NC(=O)c1ccccc1)c1ccnc2cc(Cl)ccc12", "classification": "NO"}
{"molecule": "CCOC(=O)[C@]1(Br)CC[C@@]1(Br)C(=O)OCC", "classification": "YES"}
{"molecule": "COc1ccc(/C=C(\\NC(=O)c2ccccc2)C(=O)NN(C)c2ccnc3cc(Cl)ccc23)cc1OC", "classification": "NO"}
{"molecule": "CCOC(=O)CNC(=O)c1[nH]cnc1/N=N/N(C)C", "classification": "YES"}
{"molecule": "O/N=C/C1c2ccccc2-c2ccccc21", "classification": "YES"}
{"molecule": "Cc1ccc(Nc2c3c(c(C#N)c4nc5ccccc5n24)CCCC3)cc1", "classification": "NO"}
{"molecule": "O=C(/C=C/c1cccc(Br)c1)c1ccc(Cl)cc1", "classification": "NO"}
{"molecule": "Cc1c(-c2ccccc2)[nH]c2ccccc12", "classification": "YES"}
{"molecule": "COC(=O)c1cccc(C)c1C(=O)c1c(C)cc(C)cc1C", "classification": "NO"}
{"molecule": "C=C(CCCO)[C@@H]1CC[C@@](C)(O)[C@H]1C", "classification": "NO"}
{"molecule": "O=C1C=CC(=O)N1c1ccc(N2C(=O)C=CC2=O)cc1", "classification": "YES"}
{"molecule": "O=C(/C=C/c1cccc2ccccc12)c1ccc(Cl)cc1", "classification": "NO"}
{"molecule": "Cc1cc(C(C)(C)CC(C)(C)C)cc(O)c1O", "classification": "YES"}
{"molecule": "Cc1cc(OCc2ccccc2)ccc1[N+](=O)[O-]", "classification": "NO"}
{"molecule": "CCOC(=O)C(NC(=O)CC)(N1CCN(c2cc3c(cc2F)c(=O)c(C(=O)O)cn3C2CC2)CC1)C(F)(F)F (stereo not drawn)", "classification": "YES"}
{"molecule": "O=C(O)c1[nH]c(=O)c2ccccc2c1Nc1ccccc1", "classification": "NO"}
{"molecule": "COc1ccc(SCc2cc(OC)ccc2OC)cc1", "classification": "NO"}
{"molecule": "Cc1c2cc[n+](CCN3CCCCC3)cc2c(C)c2c1[nH]c1ccc(O)cc12", "classification": "YES"}
{"molecule": "CN(C)CC1CCCc2ccccc2C1=O (stereo not drawn)", "classification": "NO"}
{"molecule": "Nc1nc2c(c(=O)[nH]1)NC(CCNc1ccc(C(=O)O)cc1)CN2 (stereo not drawn)", "classification": "NO"}
{"molecule": "O=Nc1ccc(Nc2ccccc2)cc1", "classification": "YES"}
{"molecule": "O=C(N/N=C\\c1c(Cl)cccc1Cl)N/N=C/c1c(Cl)cccc1Cl", "classification": "NO"}
{"molecule": "Cc1ccc(N=Nc2ccc(O)c(C)c2)cc1", "classification": "NO"}
{"molecule": "COc1cccc(C(c2cc3c(cc2O)OCO3)N2CCOCC2)c1OC (stereo not drawn)", "classification": "NO"}
{"molecule": "CN(C)Cc1cccc(CN(C)C)[c]1[Sn]([Br])([c]1ccccc1)[c]1ccccc1", "classification": "YES"}
{"molecule": "N#C/C(=C1C=C(Br)/C(=N\\O)C=C\\1Cl)c1cccc2ccccc12", "classification": "YES"}
{"molecule": "CC1=CCCC2C1(C)CCC(C)C2(C)Cc1cc(O)ccc1O (stereo not drawn)", "classification": "YES"}
{"molecule": "CCCc1[nH]nc(C(N)=O)c1N=NN(C)C", "classification": "YES"}
{"molecule": "CC(=O)N1C(=O)/C(=C\\C(=O)c2ccc(Cl)cc2)c2ccccc21", "classification": "YES"}
{"molecule": "Cc1nc2c(ncn2CCO)c(=O)[nH]1", "classification": "NO"}
{"molecule": "c1ccc(N2N=C3N(c4ccccc4)C2N3c2ccccc2)cc1", "classification": "YES"}
{"molecule": "O=C(CNS(=O)(=O)Cc1ccccc1)NNc1ccccc1", "classification": "NO"}
{"molecule": "CC1=CCC(C(C)(C)c2ccc(O)cc2)CC1 (stereo not drawn)", "classification": "YES"}
{"molecule": "S=C1SCN(CCc2ccccc2)CN1CCc1ccccc1", "classification": "NO"}
{"molecule": "CCNc1ccc2c(c1)C(=O)N(OS(C)(=O)=O)C2=O", "classification": "NO"}
{"molecule": "COc1ccc2c(c1)[nH]c1c(/C=C/c3ccccc3)nccc12", "classification": "YES"}
{"molecule": "O=NN(CCCl)C(=O)NC1CCCCC1", "classification": "NO"}
{"molecule": "CC(C)c1[nH]nc(C(N)=O)c1N=NN(C)C", "classification": "YES"}
{"molecule": "COc1cc(/C=C/c2sc3ccccc3[n+]2C)ccc1N(C)C", "classification": "YES"}
{"molecule": "Cc1cc(Cl)ccc1NC(=O)/C(Cl)=C1/Sc2ccccc2NC1=O", "classification": "NO"}
{"molecule": "O=c1[nH]c2ccccc2c2nc3ccccc3n12", "classification": "NO"}
{"molecule": "O=S(=O)(N/N=C/c1cccc(Cl)c1)c1ccccc1", "classification": "YES"}
{"molecule": "CCN(CC)CC(O)C1CCC(c2ccccc2)CC1 (stereo not drawn)", "classification": "NO"}
